Provenance of the data: PubChem BioAssay (NCI)

# System: SF-295 CNS
# assay overview: NCI-60 one-dose screen, 48 h (100 = growth as untreated, 0 = no growth, -100 = all killed)
# condition context: 10 µM
This is part of a sample that, as a whole, favours compounds with a hit. Of some 83,000 tested, about 20% had one in any assay.
endpoint name: growth (%)
One number for each entry, in %.

Field: example entries. Status: answers known.
> print(dat)
                                smiles.data  measurement.target  unit.tag  observed.result
1  CC/C(=C(\c1ccc(O)cc1)c1ccc(OCCN(C)C(=O)CCOCCNC(=O)c2ccc3c(c2)CN([C@@H]2CCC(=O)NC2=O)C3=O)cc1)c1ccccc1          SF-295 CNS         %             93.2
2  CC/C(=C(\c1ccc(O)cc1)c1ccc(OCCNC)cc1)c1ccccc1          SF-295 CNS         %             96.4
3  CC/C(=C(/c1ccc(O)cc1)c1ccc(OCCN(C)C(=O)COCCOCCNC(=O)c2ccc3c(c2)CN([C@@H]2CCC(=O)NC2=O)C3=O)cc1)c1ccccc1          SF-295 CNS         %             94.8

Shifting focus to the compound that follows.
In: Report growth for CC/C(=C(/c1ccc(O)cc1)c1ccc(OCCN(C)C(=O)COCCOCCNC(=O)Cc2ccc3c(c2)CN([C@@H]2CCC(=O)NC2=O)C3=O)cc1)c1ccccc1 tested on SF-295 CNS.
Out: 94.7

---

# Test system: EKVX NSCLC
# assay overview: NCI-60 one-dose screen, 48 h (100 = growth as untreated, 0 = no growth, -100 = all killed)
# condition context: 10 µM unless noted
About 83,000 compounds went through this panel and 20% of them were active in at least one assay; those are over-represented in the sample as a whole.
Binary label based on growth with cut-off 80%: below gives Met, not below gives Not met.

In: Decide: growth of CC1=C(C(=O)Nc2ccccc2)C(c2cccc(Cl)c2Cl)n2c(nc3ccccc32)N1 (stereo not given) strictly below 80%?
Out: Met

---

# Test system: TK-10 renal
# assay overview: NCI-60 one-dose screen, 48 h
# condition context: 10 µM unless noted
This is part of a sample that, as a whole, favours compounds with a hit. Of some 83,000 tested, about 20% had one in any assay. Activity calls are given as the source filed them. Rule for the calls: active = growth percent below 10; inactive = the rest.
Allowed answers: class 1 for active, class 0 for inactive

> print(dat)
                                   molecule  category.label
1  Oc1ccc(F)c(Nc2nc(SCCN3CCOCC3)nc3c2cnn3CC(Cl)c2ccc(Br)cc2)c1 (centres undefined)         class 0
2  COC(=O)c1cc(C(=O)CBr)n2c1ccc1c3ccccc3ccc12         class 0
3  O=C(c1ccc(Cl)cc1)C1[C@H](c2ccccc2Cl)[C@@H](c2ccccc2)NC12C(=O)Nc1ccc(Br)cc12 (some centres undefined)         class 1
4  CN(C)c1nc(NCCNS(=O)(=O)c2ccc(C(=O)/C=C/c3ccc(Cl)cc3)cc2)nc(N2CCOCC2)n1         class 0
5  CC(=O)Nc1ccc(S(=O)(=O)Nc2ccc(-c3ccc4c(c3)NC(=O)/C4=C\c3ccc[nH]3)cc2)cc1         class 0

In: What outcome does the record of this test show for CN1CCN(C(=O)Oc2cc3c(c4ccccc24)[C@H](CCl)CN3C(=O)c2cc3cc(OCCCN4CCC4)ccc3[nH]2)[C@@H]2CSSC[C@H]21 ?
Out: class 0

In: Now consider NS(=O)(=O)c1ccc(Nc2nc(SCC(=O)c3ccc(F)cc3)nc3ccccc23)cc1 and answer again.
Out: class 0

---

# Test system: KM12 colon
# assay overview: NCI-60 one-dose screen, 48 h
# condition context: 10 µM unless noted
Compounds without any hit were thinned out: in the full panel of roughly 83,000, 20% have a hit. Activity calls are given as the source filed them. How the source made its calls: active means growth percent below 10; inactive means the rest.
Allowed answers: active, inactive

Some solved entries appear below for comparison.
> print(dat)
                                smiles.data  category.label
1       FC(F)(F)c1cc2c(Cl)ncnc2n1CCC1CCOCC1        inactive
2  COc1sc(/C=N/NC(=O)c2[nH]c3ccc(Br)cc3c2-c2ccccc2)cc1Cl          active
3  CCCCN1C(=O)/C(=C\C(=O)c2cc3ccccc3oc2=O)c2ccccc21        inactive
4       FC(F)(F)c1cc2c(Cl)ncnc2n1CCN1CCOCC1        inactive
5  CC(C)(C)C(=O)c1c2c(c3ccc4c5ccccc5ccc4n13)C(=O)c1ccccc1C2=O        inactive

In: What outcome does the record of this test show for COc1ccc2oc(=O)c(-c3csc(N/N=C(\C)c4cc(OC)c(OC)c(OC)c4)n3)cc2c1 ?
Out: inactive

---

# Tested on: HOP-62 NSCLC
# assay overview: NCI-60 one-dose screen, 48 h
# condition context: 10 µM unless noted
This is part of a sample that, as a whole, favours compounds with a hit. Of some 83,000 tested, about 20% had one in any assay. The source made the active and inactive calls. How the source made its calls: active means growth percent below 10; inactive means the rest.
Allowed answers: yes (active), no (inactive)

Some solved entries appear below for comparison.
> print(dat)
                                   compound  category.label
1  C=CCSc1nnc(-c2ccc(-c3nc4ccc(Cl)cc4[nH]3)cc2)o1              no
2  COc1cc2cc(C(=O)N3C[C@@H](CCl)c4c3cc(OC(=O)N(CCC(=O)N3CCN(C)CC3)[C@H]3CCSSC3)c3ccccc43)[nH]c2c(OC)c1OC             yes
3  COc1ccc(C2=NN(C(=O)[C@H]3[C@@H](c4ccco4)c4sc(=O)[nH]c4S[C@@H]3C)C(c3ccc4ccccc4c3)C2)cc1 (some centres undefined)              no

In: What outcome does the record of this test show for O=C(N/N=C/c1c[nH]c2ccccc12)Nc1ccc(F)c(Cl)c1 ?
Out: no

---

# System: EKVX NSCLC
# assay overview: NCI-60 one-dose screen, 48 h (100 = growth as untreated, 0 = no growth, -100 = all killed)
# condition context: 10 µM unless noted
# Method: Growth inhibition of the EKVX human Non-Small Cell Lung tumor cell line is measured as a screen for anti-cancer activity. Cells are grown in 96 well plates and exposed to the test compound for 48 hours. Compounds are tested at a single concentration, which is 10^-5 M for most compounds. The reported endpoint is percent growth (GI% or GIPRCNT), where numbers from 0 - 100% represent growth inhibition, and numbers from -100% - 0 represent cell death. […]
About 83,000 compounds went through this panel and 20% of them were active in at least one assay; those are over-represented in the sample as a whole.
Classification field: enter condition met for growth values not below 70%, condition not met for values below it.

> print(dat)
                                   compound     category.label
1  O=C(N/N=C/c1c[nH]c2ccccc12)Nc1ccc(F)c(Cl)c1  condition not met
2  O=C1Nc2ccccc2/C1=C/C(=O)c1cc2ccccc2oc1=O      condition met
3  COc1ccc(-c2cc(C(=O)OCc3ccc(Br)cc3)nn2-c2ccc(S(C)(=O)=O)cc2)cc1OC      condition met
4  COC(=O)c1c(C(=O)OC)c2c3ccccc3c3ccccc3n2c1C(=O)C(C)(C)C      condition met
5  CC1CCc2c(sc3nc(SCC(=O)c4cccc(Br)c4)n(-c4ccccc4)c(=O)c23)C1 (stereo unspecified)  condition not met

# next compound below
In: Has CC1=C(C(=O)OCc2ccccc2)C(c2ccc(N(C)C)cc2)n2c(nc3ccccc32)N1 (stereo unspecified) a recorded growth greater than or equal to 70%?
Out: condition not met

---

# Tested on: M14 melanoma
# assay overview: NCI-60 one-dose screen, 48 h
# condition context: 10 µM unless noted
The panel holds about 83,000 compounds, 20% with a hit somewhere; the sample as a whole holds those more often. Activity calls are given as the source filed them. The calls were made as follows: active = growth percent below 10; inactive = the rest.
Allowed answers: active, inactive

Some solved entries appear below for comparison.
> print(dat)
                                   compound  category.label
1  Fc1ccccc1CNc1nc(SCCN2CCOCC2)nc2c1cnn2CC(Cl)c1ccc(Br)cc1 (stereo not given)        inactive
2       FC(F)(F)c1cc2c(Cl)ncnc2n1CCC1CCOCC1          active
3      CN1C(=O)/C(=C/c2ccco2)S/C1=N/c1nccs1        inactive
4  O=C(c1ccc(O)cc1)C1[C@H](c2ccc(Cl)cc2)[C@@H](c2ccccc2)NC12C(=O)Nc1ccc(Br)cc12 (stereo not given in full)          active

In: What outcome does the record of this test show for Cc1cc(C(NC(=O)CCCCCNc2cccc3c2C(=O)N(C2CCC(=O)CC2=O)C3=O)c2cccc(N(C)C)c2)c(O)c2ncccc12 (stereo not given) ?
Out: active
